assay: Pharmacokinetic test in male SD rats, tail vein injection; type: in vivo, rat; conditions: rat, plasma, iv, 15 mg/kg tail vein injection
READOUT_KIND: AUC(0-t)
# answer = value followed by unit

{"columns": ["SMILES_STRING", "REPORTED_RESULT"],
 "data": [
  ["O=C(c1cc(Cc2n[nH]c(=O)c3ccccc23)ccc1F)N1CCN(C(=O)C2CC2)CC1", "6440 ng·h/mL"]
]}

Alright, here's another compound for you.
I am curious: what AUC(0-t) value has been reported for `CN(C)C1(C(=O)N2CCN(C(=O)c3cc(Oc4n[nH]c(=O)c5ccccc45)ccc3F)CC2)CC1` ? 10100 ng·h/mL

====

system: lung adenocarcinoma cell line SW-1271; experiment: Cell proliferation inhibition assay, SW-1271 (Cell Titer-Glo, 5 days); assay type: cell-based; conditions: Homo sapiens, SW1271, 120 h; SW-1271, 5 days
Flag rule - IC50 less than 2000 nM flags yes (1); the remaining entries get no (0).

Does this compound meet the criterion IC50 < 2000 nM? CN(C)C1(C(=O)N2CCN(C(=O)c3cc(Oc4n[nH]c(=O)c5ccccc45)ccc3F)CC2)CCC1 [Compound 126] yes (1)

Does this compound meet the criterion IC50 < 2000 nM? O=C(c1cc(Oc2n[nH]c(=O)c3ccccc23)ccc1F)N1CCN(C(=O)C2CCC(F)(F)CC2)CC1 [Compound 107] yes (1)

Does this compound meet the criterion IC50 < 2000 nM? O=C(c1cc(Cc2n[nH]c(=O)c3ccccc23)ccc1F)N1CCN(C(=O)C2CC2)CC1 [AZD-2281, olaparib] no (0)

Does this compound meet the criterion IC50 < 2000 nM? CN(C)C1(C(=O)N2CCN(C(=O)c3cc(Oc4n[nH]c(=O)c5ccccc45)ccc3F)CC2)CC1 [Compound 124] yes (1)

Does this compound meet the criterion IC50 < 2000 nM? O=C(c1cc(Oc2n[nH]c(=O)c3ccccc23)ccc1F)N1CCN(C(=O)N2CCCCC2)CC1 [Compound 85] yes (1)

====

Would you kindly list MRT for each of these compounds?
experiment: Pharmacokinetic test in male SD rats, tail vein injection; assay type: in vivo, rat; settings: rat, plasma, iv, 15 mg/kg tail vein injection
Numbers only, in min.

{"columns": ["SMILES_STRING", "MRT [min]"],
 "data": [
  ["O=C(c1cc(Cc2n[nH]c(=O)c3ccccc23)ccc1F)N1CCN(C(=O)C2CC2)CC1", 19.8]
]}

Alright, here's another compound for you.
I am curious: what MRT value has been reported for `CN(C)C1(C(=O)N2CCN(C(=O)c3cc(Oc4n[nH]c(=O)c5ccccc45)ccc3F)CC2)CC1` ? 22.4
